Test system: HepaRG
Experiment: LDH release cytotoxicity, % of total lysis control; higher = more cytotoxic
Settings: 0.3162278 µM; 48 h
Would you kindly list LDH release cytotoxicity for each of these compounds?
One number for each entry, in %.

INSERT INTO assay_data (compound, outcomemeasure, unittext, observedmeasurement) VALUES
  ('C1CCC(SSC2CCCCC2)CC1 [Dicyclohexyl disulfide]', 'LDH release cytotoxicity', '%', -0.405),
  ('COc1ccc(S(=O)(=O)N2C(=O)C(c3ccccc3OC)(N3CC(O)CC3C(=O)N(C)C)c3cc(Cl)ccc32)c(OC)c1 (stereo not drawn) [Nelivaptan]', 'LDH release cytotoxicity', '%', 0.146),
  ('CCCCC(CC)COP(=O)(OCC(CC)CCCC)OCC(CC)CCCC (stereo not drawn) [Tris(2-ethylhexyl) phosphate]', 'LDH release cytotoxicity', '%', -1.21),
  ('c1cc2c3c(cccc3c1)CC2 [Acenaphthene]', 'LDH release cytotoxicity', '%', 0.475),
  ('CCOCCOC(C)=O [Ethylene glycol monoethyl ether acetate]', 'LDH release cytotoxicity', '%', 0.156),
  ('CC1(C)C(=O)NC(=O)N1CO [1-(Hydroxymethyl)-5,5-dimethylhydantoin]', 'LDH release cytotoxicity', '%', -1.77),
  ('CCCOc1nn(C(=O)NS(=O)(=O)c2ccccc2C(=O)OC)c(=O)n1C [Propoxycarbazone-sodium]', 'LDH release cytotoxicity', '%', -0.758),
  ('Cc1cn(C2C=CC(CO)O2)c(=O)[nH]c1=O (stereo not drawn) [Stavudine]', 'LDH release cytotoxicity', '%', 0.0542);

Value sought for every listed compound: LDH release cytotoxicity.
1. COc1c(Cl)ccc(Cl)c1C(=O)O [Dicamba]
2. CCCCC(CC)COC(=O)CC(C(=O)OCC(CC)CCCC)S(=O)(=O)O (stereo not drawn) [Docusate sodium]
3. COc1ccc(O)c(C(C)(C)C)c1 [2-tert-Butyl-4-methoxyphenol]
4. Cc1nc(N(C)C)nc(OC(=O)N(C)C)c1C [Pirimicarb]
5. O=C(NS(=O)(=O)C=Cc1cccs1)c1ccc(F)cc1Br

1. -0.804
2. -0.361
3. 0.0233
4. -1.89
5. -1.39

Data origin, for the record: the supplement of paper PMC7840683
